Target: human SNORF72 receptor (human, UniProt Q9GZQ4 1-415)
Sequence (Q9GZQ4 other isoform, or with tags, fused parts or gaps): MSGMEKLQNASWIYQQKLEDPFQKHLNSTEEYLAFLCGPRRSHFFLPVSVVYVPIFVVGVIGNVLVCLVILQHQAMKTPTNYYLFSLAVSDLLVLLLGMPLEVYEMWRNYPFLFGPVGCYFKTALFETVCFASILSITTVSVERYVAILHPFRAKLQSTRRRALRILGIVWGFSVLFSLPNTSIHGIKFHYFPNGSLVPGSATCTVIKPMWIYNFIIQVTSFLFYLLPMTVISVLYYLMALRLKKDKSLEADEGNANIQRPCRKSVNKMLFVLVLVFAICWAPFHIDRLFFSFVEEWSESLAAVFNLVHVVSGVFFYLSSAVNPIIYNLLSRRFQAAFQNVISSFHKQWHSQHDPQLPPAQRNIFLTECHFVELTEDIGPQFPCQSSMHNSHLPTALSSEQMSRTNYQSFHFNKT
Experiment: displacement of [125I]rat NMU-23 (0.05-0.1 nM), membranes of SNORF72-transfected COS-7 cells, n=2
Procedure: Radioligand binding assays were performed by diluting membranes prepared from cells expressing the receptor in 50 mM Tris buffer (pH=7.4 at 0° C.) containing 0.1% bovine serum albumin (Sigma), aprotinin (0.005 mg/ml, Boehringer Mannheim) and bestatin (0.1 mM, Sigma) as protease inhibitors. […] After addition of Ready Safe (Beckman) scintillation fluid, bound radioactivity was quantitated using a Trilux (Wallac) scintillation counter (approximately 40% counting efficiency of bound counts). […]
No end group written: not given here.
// reported pKi per item

Solved entries:
• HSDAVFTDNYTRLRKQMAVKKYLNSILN-NH2 (peptide, UniProt P01282 125-152, looked up, species assumed, ends and bridges not checked) [vasoactive intestinal peptide] = < 5
• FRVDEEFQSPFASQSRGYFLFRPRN-NH2 (also called human neuromedin U-25) [human NMU-25] = 8.5
• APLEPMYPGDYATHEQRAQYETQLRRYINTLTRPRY (peptide, UniProt P06303 30-65, looked up, also called rat pancreatic polypeptide) [rat PP] = < 5
• YKVNEYQGPVAPSGGFFLFRPRN-NH2 (also called rat neuromedin U-23) [rat NMU-23] = 9

Please examine the following record next.
Param item = FKVDEEFQGPIVSQNRRYFLFRPRN-NH2 (also called porcine neuromedin U-25) [porcine NMU-25] ; retrieve measured pKi.
8.7
